assay: qHTS for Inhibitors of the Functional Ribonucleoprotein Complex (vRNP) of Lassa (LASV) Arenavirus: LASV Primary Screen - GLuc reporter signal (AID 1347082); conditions: LASV minigenome vRNP, Gaussia luciferase reporter; series mostly up to 57.5 µM; note: nearly all actives have a fitted effect of over 60% in size
Results filed as inconclusive are left out. The source made the active and inactive calls. Calls come from the whole dose curve; tested in HEK293 reporter line.
# valid calls are active, inactive; nothing else

Example entries begin here.
1) CCc1nccc2c1[nH]c1ccccc12    inactive
2) NC(=Nc1ccccc1)NC(=O)c1nc(Cl)c(N)nc1N    inactive
3) Cc1nc(C)c(C)nc1C    inactive
4) CC1CNc2c(cccc2S(=O)(=O)N[C@@H](CCCN=C(N)N)C(=O)N2CC[C@@H](C)C[C@@H]2C(=O)O)C1 (some centres not stated)    inactive

Lookup: Answer briefly: the call reported for CC(C)(O[C@@H]1O[C@H](CO)[C@@H](O)[C@H](O)[C@H]1O)[C@@H]1CC=C(C(=O)O)CC1 in this assay.
Found: inactive

Lookup: Answer briefly: the call reported for CC[C@H](C=C[C@@H](C)[C@H]1CC[C@H]2[C@@H]3CC=C4C[C@@H](O)CC[C@]4(C)[C@@H]3CC[C@]12C)C(C)C in this assay.
Found: inactive

Lookup: Answer briefly: the call reported for C[C@H](NCc1ccc2c(c1)nc(NC(=O)c1ccc(-c3cn[nH]c3)s1)n2CCc1ccccc1)C(C)(C)C in this assay.
Found: active

----------
experiment: qHTS for Inhibitors of the Functional Ribonucleoprotein Complex (vRNP) of Lymphocytic Choriomeningitis Arenaviruses (LCMV): Viability assay - alamar blue signal for LCMV Primary Screen (AID 1347085); details: alamar blue viability counter-screen, LCMV vRNP screen cells; series mostly up to 57.5 µM; note: nearly all actives have a fitted effect of over 80% in size; note: potency is the fitted concentration of half-maximal effect
Records with an inconclusive call do not appear. Calls of active or inactive are those of the source. The call rests on the fitted dose curve; tested in HEK293 reporter line.
MEASURE: Potency

As a guide, the following entries are already answered.
1) Cn1cc(CNCC2CCN(c3ncc(C(=O)NO)cn3)CC2)c2ccccc21    0.485 µM (active)
2) CC1(C)CNc2cc(NC(=O)c3cccnc3NCc3ccncc3)ccc21    34.3 µM (active)
3) CCN(CCO)CCCOc1ccc2c(Nc3cc(CC(=O)Nc4cccc(F)c4)[nH]n3)ncnc2c1    inactive
4) NC1CCN(O)C1=O (stereo not given)    inactive

Lookup: Param item = Nc1ccc2c3c(cccc13)C(=O)NC2=O ; retrieve measured Potency.
Found: inactive

----------
experiment: qHTS for Inhibitors of the Functional Ribonucleoprotein Complex (vRNP) of Lymphocytic Choriomeningitis Arenaviruses (LCMV): Viability assay - alamar blue signal for LCMV Primary Screen (AID 1347085); settings: alamar blue viability counter-screen, LCMV vRNP screen cells; series mostly up to 57.5 µM; note: nearly all actives have a fitted effect of over 80% in size; note: potency is the fitted concentration of half-maximal effect
Records with an inconclusive call do not appear. Activity calls are given as the source filed them. Calls come from the whole dose curve; tested in HEK293 reporter line.
MEASURE: Potency

As a guide, the following entries are already answered.
1. OCCCNc1cc(-c2ccnc(Nc3cccc(Cl)c3)n2)ccn1    769 nM (active)
2. NC(=O)c1cccc(N)c1    inactive
3. O=C(O)Cc1ccc(O)cc1    inactive
4. CC(C)CCCCCCCCCCCCCCC(=O)O    inactive
5. O=[N+]([O-])c1c(Cl)cccc1-c1c[nH]cc1Cl    inactive
6. OC[C@H]1O[C@@H](n2cnc3c(Nc4ccccc4)ncnc32)[C@H](O)[C@@H]1O    inactive
7. CCCC/C=C/C=C\C=O    inactive
8. C[C@H](CCC(=O)NCC(=O)O)[C@H]1CC[C@H]2[C@@H]3[C@H](O)C[C@@H]4C[C@H](O)CC[C@]4(C)[C@H]3C[C@H](O)[C@]12C    inactive

Lookup: Param item = COc1ccc([C@@H]2CNC(=O)C2)cc1OC1CCCC1 ; retrieve measured Potency.
Found: 3430 nM (active)

Lookup: Param item = CC1(C)[C@H]2CC[C@]3(C)[C@@H](C(=O)C=C4[C@@H]5C[C@@](C)(C(=O)O)CC[C@]5(C)CC[C@]43C)[C@@]2(C)CC[C@@H]1O ; retrieve measured Potency.
Found: inactive

Lookup: Param item = CC1CC(C)C(=O)C1=O (stereo not drawn) ; retrieve measured Potency.
Found: inactive

Lookup: Param item = O=c1c(O)c(-c2cc(O)c(O)c(O)c2)oc2cc(O)cc(O)c12 ; retrieve measured Potency.
Found: inactive

Lookup: Param item = C=Cc1c(C)c2cc3nc(cc4[nH]c(cc5nc(cc1[nH]2)C(C)=C5CCC(=O)O)c(CCC(=O)OC)c4C)[C@@]1(C)C3=CC=C(C(=O)OC)[C@H]1C(=O)OC ; retrieve measured Potency.
Found: 172 nM (active)

Lookup: Param item = CCCCCCC/C=C\CCCCCCCCC(=O)O ; retrieve measured Potency.
Found: inactive

Lookup: Param item = CCCCCCCC/C=C/CCCOC(C)=O ; retrieve measured Potency.
Found: inactive

Lookup: Param item = C=C(C)C(O)CC/C(C)=C/Cc1c(O)ccc(C(=O)/C=C/c2ccc(O)cc2)c1O (stereo not drawn) ; retrieve measured Potency.
Found: inactive

Lookup: Param item = NCCNC(=O)c1ncsc1-c1cccc(F)c1 ; retrieve measured Potency.
Found: inactive

Lookup: Param item = N#CC(=C(N)Sc1ccc(N)cc1)c1ccccc1C(F)(F)F ; retrieve measured Potency.
Found: inactive

----------
test: qHTS for Inhibitors of the Functional Ribonucleoprotein Complex (vRNP) of Lassa (LASV) Arenavirus: Viability assay - alamar blue signal for LASV Primary Screen (AID 1347083); details: cell viability, alamar blue fluorescence (LASV minigenome counter-screen); series mostly up to 57.5 µM; note: nearly all actives have a fitted effect of over 80% in size
Records with an inconclusive call do not appear. Activity calls are given as the source filed them. Calls come from the whole dose curve; tested in HEK293 reporter line.
# valid calls are label 1 (active), label 0 (inactive); nothing else

Example entries begin here.
1. COc1cccc(OC)c1    label 0
2. CC(Oc1ccc(O)cc1)(P(=O)(O)O)P(=O)(O)O    label 0

Lookup: Answer briefly: the call reported for CNC[C@@H](O)[C@@H](O)[C@H](O)[C@H](O)CO in this assay.
Found: label 0

Lookup: Answer briefly: the call reported for CC1=C(C(=O)O)N2C(=O)[C@@H](NC(=O)C(N)C3=CCC=CC3)[C@H]2SC1 (stereo partly drawn) in this assay.
Found: label 0

Lookup: Answer briefly: the call reported for Nc1cccc2c1C(=O)N(C1CCC(=O)NC1=O)C2=O (stereo not drawn) in this assay.
Found: label 0

----------
molecular target: Peroxisome proliferator-activated receptor delta (Homo sapiens) (UniProt Q03181); assay: qHTS assay for small molecule agonists of peroxisome proliferator-activated receptor delta signaling (AID 588534); conditions: HEK293T PPARdelta-UAS-bla, beta-lactamase ratio, 18 h; series mostly up to 76.7 µM
Sequence (Q03181 whole entry, looked up): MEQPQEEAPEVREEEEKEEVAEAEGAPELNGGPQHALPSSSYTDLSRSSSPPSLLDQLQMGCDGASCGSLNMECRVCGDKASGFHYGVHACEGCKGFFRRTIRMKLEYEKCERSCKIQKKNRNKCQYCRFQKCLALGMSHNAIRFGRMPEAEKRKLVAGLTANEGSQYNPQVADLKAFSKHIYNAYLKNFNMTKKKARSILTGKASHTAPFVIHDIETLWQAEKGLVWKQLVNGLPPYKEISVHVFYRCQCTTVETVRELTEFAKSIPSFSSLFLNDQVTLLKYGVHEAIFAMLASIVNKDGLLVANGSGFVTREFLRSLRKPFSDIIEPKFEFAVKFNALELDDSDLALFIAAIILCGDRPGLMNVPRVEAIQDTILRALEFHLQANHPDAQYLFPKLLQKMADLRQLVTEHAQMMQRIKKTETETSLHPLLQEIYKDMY
Inconclusive results are not listed. The source made the active and inactive calls. Calls follow the shape of the full dose curve.
# valid calls are active, inactive; nothing else

1. N[C@@H](Cc1ccc(O)c(O)c1)C(=O)O    inactive
2. CCC(=O)OCCc1ccccc1    inactive
3. CC(C)=CCC/C(C)=C/CC/C(C)=C/CO    inactive
4. CC(=O)c1ccccn1    inactive
5. Cc1cc(O)c2c(c1)C(=O)c1cccc(O)c1C2=O    inactive
6. O=C(Nc1ccccc1)Nc1ccccc1    inactive

Lookup: Answer briefly: the call reported for C[C@@H]1Cc2c(Cl)cc(C(=O)N[C@@H](Cc3ccccc3)C(=O)O)c(O)c2C(=O)O1 in this assay.
Found: active

Lookup: Answer briefly: the call reported for Oc1ccccc1O in this assay.
Found: inactive

Lookup: Answer briefly: the call reported for O=C(Nc1ccccc1)c1cc([N+](=O)[O-])ccc1Cl in this assay.
Found: inactive

Lookup: Answer briefly: the call reported for CC/C=C\CCOC(=O)c1ccccc1O in this assay.
Found: inactive

Lookup: Answer briefly: the call reported for CC(C)Nc1nc(N)nc(Cl)n1 in this assay.
Found: inactive

Lookup: Answer briefly: the call reported for O=C(O)/C=C/C(=O)O in this assay.
Found: inactive

----------
system: Es-2; test: Primary qHTS to identify gynecologic anti-cancer compounds using libraries of approved drugs and bioactive compounds (AID 1345084); settings: Gynecologic cancer cell panel viability, ATPlite luminescence, 48 h; series mostly up to 57.5 µM; note: nearly all actives have a fitted effect of over 55% in size
Inconclusive results are not listed. Activity calls are given as the source filed them. Calls follow the shape of the dose curve; as a rule, active = well fitted cell-killing curve with a large enough effect; inconclusive = small, poorly fitted or top-dose-only effect, or effect the other way; inactive = flat fitted curve, though single readings scatter.
# valid calls are active, inactive; nothing else

Example entries begin here.
1) Oc1ccc2c3c1O[C@H]1c4[nH]c5c(N=C=S)cccc5c4C[C@@]4(O)[C@@H](C2)N(CC2CC2)CC[C@]314    inactive
2) CC[C@H]1C[C@@H]2CC[C@@H](O2)[C@@H](C)C(=O)O[C@H](CC)C[C@H]2CC[C@H](O2)[C@H](C)C(=O)O[C@@H](C)C[C@@H]2CC[C@@H](O2)[C@@H](C)C(=O)O[C@H](CC)C[C@H]2CC[C@H](O2)[C@H](C)C(=O)O1    active

Lookup: Answer briefly: the call reported for CC1=CC2/C=C(\C)CCCC(O)/C=C/C(=O)OC23C(=O)NC(CC(C)C)C3C1C (stereo not given) in this assay.
Found: inactive

Lookup: Answer briefly: the call reported for CN(C)[C@@H]1C(=O)C(C(N)=O)=C(O)[C@@]2(O)C(=O)C3=C(O)c4c(O)ccc(Cl)c4[C@@](C)(O)C3C[C@@H]12 (stereo not given in full) in this assay.
Found: inactive

Lookup: Answer briefly: the call reported for CN1C[C@@H]2CN(c3ccc(-c4ccccc4)nn3)C[C@@H]2C1 in this assay.
Found: inactive

Lookup: Answer briefly: the call reported for COC(=O)C12C(=O)C(C)(O)C(=O)C1(C)C(C)=CC1C34CCC(OC3=O)C(C)(C)C4CCC12C (stereo not given) in this assay.
Found: inactive

Lookup: Answer briefly: the call reported for C[C@H]1O[C@@H](O[C@H]2CC[C@]3(C=O)C4CC[C@]5(C)[C@@H](C6=CC(=O)OC6)CC[C@]5(O)[C@@H]4CC[C@]3(O)C2)C[C@@H](O)[C@@H]1O (stereo not given in full) in this assay.
Found: active

Hello, the source for this data is PubChem BioAssay (NCATS), in case you need it.
